Tested on: Fibroblast
Experiment: Multiplex assay against human fibroblast
Type: toxicity, cell-based
Details: 24 h, 1 µM, compound concentration 1 uM, replicate 1
Non-standard residues stand in square brackets, D forms with d. Residues, ends and D or L forms follow the SMILES beside them.
Kindly apply the following: condition met if Population Fragmented Nuclei (%) is less than 20%, condition not met in every other case.

INSERT INTO assay_data (molecule, tgt, class_name) VALUES
  ('OCCCNc1cc(-c2ccnc(Nc3cccc(Cl)c3)n2)ccn1', 'Fibroblast', 'condition met'),
  ('CC(C)C[C@H](CO)Nc1nc(S[C@@H](C)c2ccccc2)nc2nc(N)sc12 [AZD-8797]', 'Fibroblast', 'condition met'),
  ('CCC(=O)OCC(=O)[C@@]1(OC(=O)CC)[C@@H](C)C[C@H]2[C@@H]3CCC4=CC(=O)C=C[C@]4(C)[C@@]3(Cl)[C@@H](O)C[C@@]21C [BECLOMETHASONE DIPROPIONATE]', 'Fibroblast', 'condition met'),
  ('COc1ccc2c(c1OCc1ccccc1)C[C@@H](C(=O)O)N(C(=O)C(c1ccccc1)c1ccccc1)C2 [OLODANRIGAN]', 'Fibroblast', 'condition met'),
  ('CC(C)C[C@@H]1NC(=O)[C@@H](C(C)C)NC(=O)[C@@H]2CCCN2C(=O)[C@@H](CC(=O)O)NC(=O)[C@@H](Cc2c[nH]c3ccccc23)NC1=O [BQ-123] (cyclo(L[dW][dD]P[dV]))', 'Fibroblast', 'condition met'),
  ('COc1cc(C(=O)N2CC[C@@H](O)[C@@H](N)C2)cc2nc(-c3cc4ccccc4n3CC3CC3)n(C)c12.Cl', 'Fibroblast', 'condition not met'),
  ('CCCCC[C@H](O)/C=C/[C@H]1[C@H](O)CC(=O)[C@@H]1CCCCCCC(=O)O [ALPROSTADIL]', 'Fibroblast', 'condition met'),
  ('O=c1ccc2ccc(OCCCCN3CCN(c4cccc5sccc45)CC3)cc2[nH]1 [BREXPIPRAZOLE]', 'Fibroblast', 'condition met'),
  ('COc1cc(OC2CCN(C(C)=O)CC2)ccc1C(=O)N1CCC(N2C(=O)OCc3ccccc32)CC1', 'Fibroblast', 'condition met'),
  ('CSc1nc(NC2CCCC2)c([N+](=O)[O-])c(NC2CCCC2)n1 [GS-39783]', 'Fibroblast', 'condition met'),
  ('C=CCN1C[C@H](C(=O)N(CCCN(C)C)C(=O)NCC)C[C@@H]2c3cccc4[nH]cc(c34)C[C@H]21 [CABERGOLINE]', 'Fibroblast', 'condition met'),
  ('COc1cc2nc(N3CCN(C(=O)COc4c(OC)cccc4C(C)C)CC3)nc(N)c2cc1OC.Cl.Cl', 'Fibroblast', 'condition not met'),
  ('CN1C[C@H](C(=O)N[C@]2(C)O[C@@]3(O)[C@@H]4CCCN4C(=O)[C@H](Cc4ccccc4)N3C2=O)C[C@@H]2c3cccc4[nH]cc(c34)C[C@H]21.CS(=O)(=O)O [DIHYDROERGOTAMINE MESYLATE]', 'Fibroblast', 'condition met'),
  ('Cc1nn(C)c2nc(NNC(=O)Nc3cc(Cl)nc(Cl)c3)cc(C(C)C)c12', 'Fibroblast', 'condition met'),
  ('CN1CCN(c2ccc(Nc3c4ccccc4nc4ccccc34)cc2)CC1.Cl.Cl.O', 'Fibroblast', 'condition not met'),
  ('CCn1c(-c2nc3cc(C(=O)N4CCCC(N)C4)ccc3n2C)cc2ccccc21.Cl (stereo not drawn)', 'Fibroblast', 'condition not met'),
  ('CN(C)C(=O)Cn1cc(-c2ccc(-c3nnc4ccccn34)cc2)cn1', 'Fibroblast', 'condition not met'),
  ('COC(c1ccccc1)(c1ccccc1)[C@H](Oc1nc(C)cc(C)n1)C(=O)O [AMBRISENTAN]', 'Fibroblast', 'condition met'),
  ('O=c1nc2[nH]c3ccccc3nc-2c(=O)[nH]1 [ALLOXAZINE]', 'Fibroblast', 'condition met'),
  ('CN1CCN2c3ccccc3Cc3ccccc3C2C1.Cl (stereo not drawn) [MIANSERIN HYDROCHLORIDE]', 'Fibroblast', 'condition not met'),
  ('CCc1nn2c(C)cc(C)nc2c1Cc1ccc(-c2nnc(C3CCNCC3)o2)cc1', 'Fibroblast', 'condition met'),
  ('COCCn1c(C)c(C)s/c1=N\C(=O)C1C(C)(C)C1(C)C', 'Fibroblast', 'condition met'),
  ('Cn1cc(C(=O)OCC2CCN(CCNS(C)(=O)=O)CC2)c2ccccc21', 'Fibroblast', 'condition met'),
  ('Cc1sc2c(c1C)C(c1ccc(Cl)cc1)=N[C@H](CC(=O)OC(C)(C)C)c1nnc(C)n1-2', 'Fibroblast', 'condition met'),
  ('Cc1c(Cc2ccc3ccccc3n2)c2cc(F)ccc2n1CC(=O)O [TIMAPIPRANT]', 'Fibroblast', 'condition met'),
  ('CCCCCCNC(=O)Nc1ccc(S(=O)(=O)Nc2ccc(CCNC[C@H](O)COc3ccc(O)cc3)cc2)cc1 [L-755507]', 'Fibroblast', 'condition not met'),
  ('S=C(NCCCc1c[nH]cn1)NCCCN(Cc1ccc(Cl)c(Cl)c1)c1ccc(Br)cn1', 'Fibroblast', 'condition met'),
  ('CC(C)(O)C(=O)N1CCN(c2ccc(C(F)(F)F)c(C3=C(c4c[nH]c5ccccc45)C(=O)NC3=O)c2)CC1', 'Fibroblast', 'condition not met'),
  ('Cc1cc(O)c(-c2ccc([C@@H](C)CN(C)C)cc2)c2c1[nH]c(=O)c1sccc12', 'Fibroblast', 'condition met'),
  ('CN1CCC(C(=O)c2cccc(NC(=O)c3c(F)cc(F)cc3F)n2)CC1', 'Fibroblast', 'condition met'),
  ('Cc1ccc(OCC(O)C(C)NC(C)C)c2c1CCC2.Cl (stereo not drawn)', 'Fibroblast', 'condition met');

// provenance: ChEMBL document CHEMBL5058577
